Biological target: Polyunsaturated fatty acid lipoxygenase ALOX12 (Homo sapiens)
Sequence (P18054 whole entry): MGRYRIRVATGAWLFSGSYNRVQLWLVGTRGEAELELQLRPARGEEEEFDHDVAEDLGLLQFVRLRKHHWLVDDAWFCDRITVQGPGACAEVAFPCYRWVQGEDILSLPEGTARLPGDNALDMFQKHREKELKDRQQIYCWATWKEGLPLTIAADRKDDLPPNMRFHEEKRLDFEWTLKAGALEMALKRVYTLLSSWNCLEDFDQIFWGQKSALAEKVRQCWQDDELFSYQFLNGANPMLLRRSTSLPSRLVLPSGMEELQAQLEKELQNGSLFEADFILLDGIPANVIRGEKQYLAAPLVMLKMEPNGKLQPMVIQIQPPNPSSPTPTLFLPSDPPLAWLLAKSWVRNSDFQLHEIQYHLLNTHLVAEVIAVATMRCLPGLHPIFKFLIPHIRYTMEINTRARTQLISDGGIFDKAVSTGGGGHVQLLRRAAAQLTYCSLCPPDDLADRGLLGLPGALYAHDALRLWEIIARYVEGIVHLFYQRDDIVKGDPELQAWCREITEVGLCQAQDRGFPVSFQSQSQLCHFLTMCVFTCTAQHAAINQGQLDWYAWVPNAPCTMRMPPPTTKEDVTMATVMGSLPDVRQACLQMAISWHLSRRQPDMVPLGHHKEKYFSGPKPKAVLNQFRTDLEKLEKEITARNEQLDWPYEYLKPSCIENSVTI
Assay: Inhibition of human platelet-type N-terminally His6-tagged 12-lipoxygenase assessed as conjugated diene product formation using arachidonic acid by UV-vis spectrophotometer analysis
pIC50: −log10 of the molar value.
quantity.kind: pIC50

Solved entries:
>>> reported_measurement("CCC(=O)NC(C)c1cc(Cl)c2cccnc2c1O (stereo not given)")
"< 4.30"
>>> reported_measurement("CCC(=O)NC(c1ccc(Br)o1)c1cc(Cl)c2cccnc2c1O (stereo not given)")
"< 4.12"
>>> reported_measurement("CCC(=O)NC(c1ccco1)c1cc(Cl)c2cccnc2c1OC (stereo not given)")
"< 4.12"
>>> reported_measurement("CC(=O)NCc1cc(Cl)c2cccnc2c1O")
"< 3.82"
>>> reported_measurement("O=C(NC(c1ccco1)c1cc(Cl)c2cccnc2c1O)c1ccccc1 (stereo not given)")
"< 4.60"
>>> reported_measurement("CCC(=O)NC(c1ccco1)c1cc(Cl)c2c(c1O)NCCC2 (stereo not given)")
5.52

Lab note: each compound below needs its pIC50 filled in.
1. CC(=O)NC(C)c1cc(Cl)c2cccnc2c1O (stereo not given)
2. Oc1c(Cl)cc(Cl)c2cccnc12 [CHLOROXINE]
3. CC(=O)NC(c1ccco1)c1cc(Cl)c2ccc(N(C)C)nc2c1O (stereo not given)
4. Cc1ccc(C(=O)NC(c2ccco2)c2cc(Cl)c3cccnc3c2O)cc1 (stereo not given)
5. CCC(=O)NC(c1ccc(F)cc1)c1cc(Cl)c2cccnc2c1O (stereo not given)
6. CC(=O)NC(C)c1cc(F)c2cccnc2c1O (stereo not given)

Found:
1. < 3.82
2. 5.72
3. < 4.12
4. < 4.60
5. < 4.30
6. < 4.12

---

Molecular target: Polyunsaturated fatty acid lipoxygenase ALOX12 (Homo sapiens)
Assay: cell-based
quantity.kind: pIC50
Give bare numbers, as −log10 of the molar value.

Lookup: Short answer please: pIC50, Polyunsaturated fatty acid lipoxygenase ALOX12 (Homo sapiens), entry CCC(=O)NC(c1cccs1)c1cc([N+](=O)[O-])c2cccnc2c1O (stereo unspecified)
Found: 4.82

---

Target: Polyunsaturated fatty acid lipoxygenase ALOX15B (Homo sapiens)
Sequence (O15296 whole entry): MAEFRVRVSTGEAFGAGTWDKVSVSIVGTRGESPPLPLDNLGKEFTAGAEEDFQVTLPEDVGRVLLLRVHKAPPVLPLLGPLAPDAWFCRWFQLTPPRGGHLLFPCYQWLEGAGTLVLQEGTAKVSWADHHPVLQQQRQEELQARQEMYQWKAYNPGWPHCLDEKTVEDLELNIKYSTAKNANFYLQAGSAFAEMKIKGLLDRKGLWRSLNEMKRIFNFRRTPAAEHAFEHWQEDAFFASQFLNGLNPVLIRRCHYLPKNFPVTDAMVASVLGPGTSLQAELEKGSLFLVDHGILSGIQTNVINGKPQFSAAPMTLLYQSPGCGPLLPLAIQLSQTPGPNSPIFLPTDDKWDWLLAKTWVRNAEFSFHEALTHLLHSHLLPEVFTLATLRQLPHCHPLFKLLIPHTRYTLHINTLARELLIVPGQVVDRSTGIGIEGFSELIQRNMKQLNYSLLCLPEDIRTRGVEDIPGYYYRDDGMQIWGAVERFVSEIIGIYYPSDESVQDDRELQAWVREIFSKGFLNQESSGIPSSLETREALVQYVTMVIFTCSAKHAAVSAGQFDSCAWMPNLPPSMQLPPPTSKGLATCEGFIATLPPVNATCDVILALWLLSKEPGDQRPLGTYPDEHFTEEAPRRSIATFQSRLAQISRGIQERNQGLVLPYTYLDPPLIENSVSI
quantity.kind: IC50 (µM)
Answers are plain numbers, in µM.

Lookup: // IC50 lookup, key: Oc1c(Cl)cc(Cl)c2cccnc12 [CHLOROXINE]
Found: 28

---

Molecular target: Polyunsaturated fatty acid 5-lipoxygenase (Homo sapiens, UniProt P09917)
Sequence (P09917 whole entry): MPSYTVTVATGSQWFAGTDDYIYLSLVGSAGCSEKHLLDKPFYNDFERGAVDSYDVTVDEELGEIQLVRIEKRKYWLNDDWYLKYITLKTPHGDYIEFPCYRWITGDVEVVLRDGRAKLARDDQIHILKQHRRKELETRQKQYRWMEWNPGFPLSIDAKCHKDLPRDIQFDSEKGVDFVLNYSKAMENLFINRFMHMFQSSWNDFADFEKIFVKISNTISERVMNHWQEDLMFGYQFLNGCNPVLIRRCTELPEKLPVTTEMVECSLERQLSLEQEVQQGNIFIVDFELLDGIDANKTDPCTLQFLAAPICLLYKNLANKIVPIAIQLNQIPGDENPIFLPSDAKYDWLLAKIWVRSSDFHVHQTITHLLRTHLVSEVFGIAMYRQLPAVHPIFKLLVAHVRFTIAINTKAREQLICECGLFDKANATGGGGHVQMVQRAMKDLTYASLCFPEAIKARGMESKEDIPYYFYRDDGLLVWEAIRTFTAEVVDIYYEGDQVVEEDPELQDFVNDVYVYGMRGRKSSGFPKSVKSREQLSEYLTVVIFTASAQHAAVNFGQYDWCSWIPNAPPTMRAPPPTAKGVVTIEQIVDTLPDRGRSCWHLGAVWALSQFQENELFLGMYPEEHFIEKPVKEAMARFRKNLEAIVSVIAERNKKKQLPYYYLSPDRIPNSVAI
quantity.kind: IC50 (µM)
Answers are plain numbers, in µM.

Lookup: Short answer please: IC50, Polyunsaturated fatty acid 5-lipoxygenase (Homo sapiens, UniProt P09917), entry "Oc1c(Cl)cc(Cl)c2cccnc12"
Found: 3.6

---

Biological target: Polyunsaturated fatty acid lipoxygenase ALOX15 (Homo sapiens, UniProt P16050)
Sequence (P16050 whole entry): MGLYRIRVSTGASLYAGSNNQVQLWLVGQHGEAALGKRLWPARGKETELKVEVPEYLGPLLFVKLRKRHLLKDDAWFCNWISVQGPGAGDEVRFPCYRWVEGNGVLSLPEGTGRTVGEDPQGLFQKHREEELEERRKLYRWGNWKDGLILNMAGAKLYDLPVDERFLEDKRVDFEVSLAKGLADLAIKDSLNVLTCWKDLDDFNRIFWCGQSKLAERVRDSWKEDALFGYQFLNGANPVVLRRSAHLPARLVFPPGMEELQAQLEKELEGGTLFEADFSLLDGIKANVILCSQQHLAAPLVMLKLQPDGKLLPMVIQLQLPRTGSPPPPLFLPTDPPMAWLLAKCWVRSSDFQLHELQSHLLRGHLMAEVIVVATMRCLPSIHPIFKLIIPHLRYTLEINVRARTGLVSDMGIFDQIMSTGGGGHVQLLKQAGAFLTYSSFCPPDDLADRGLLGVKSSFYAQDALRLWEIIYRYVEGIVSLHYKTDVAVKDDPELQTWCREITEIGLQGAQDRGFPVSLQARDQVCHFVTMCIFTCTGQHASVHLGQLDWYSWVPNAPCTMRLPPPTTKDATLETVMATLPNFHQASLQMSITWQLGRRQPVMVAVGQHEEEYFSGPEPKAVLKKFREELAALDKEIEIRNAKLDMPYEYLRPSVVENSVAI
Test: Inhibition of human reticulocyte N-terminally His6-tagged 15-lipoxygenase-1 assessed as conjugated diene product formation using arachidonic acid by UV-vis spectrophotometer analysis
pIC50: −log10 of the molar value.
quantity.kind: pIC50

Solved entries:
>>> reported_measurement("Oc1c(Cl)cc(Cl)c2cccnc12 [CHLOROXINE]")
5.62
>>> reported_measurement("CCC(=O)NC(c1cccs1)c1ccc2cccnc2c1O (stereo not given)")
"< 4.30"
>>> reported_measurement("CCC(=O)NC(c1ccco1)c1cc(Cl)c2cccnc2c1O (stereo not given)")
"< 4.30"
>>> reported_measurement("CCC(=O)NC(c1cccs1)c1cc([N+](=O)[O-])c2cccnc2c1O (stereo not given)")
"< 4.60"

Please examine the following record next.
Lookup: // pIC50 lookup, key: CC(=O)NC(c1cccs1)c1cc(Cl)c2cccnc2c1O (stereo not given)
Found: < 4.60

---

// Polyunsaturated fatty acid lipoxygenase ALOX15 (Homo sapiens, UniProt P16050) pIC50 records
One number for each entry, as −log10 of the molar value.

>>> reported_measurement("CC(C)(c1ccc(O)c(Br)c1)c1cc(Br)c(O)c(Br)c1")
5.15

Please examine the following record next.
Lookup: // pIC50 lookup, key: "Oc1c(Br)c(Br)c(Br)c(Br)c1Oc1ccc(Br)cc1Br"
Found: 6.15

---

Molecular target: Polyunsaturated fatty acid lipoxygenase ALOX12 (Homo sapiens, UniProt P18054)
Assay: Inhibition of human platelet-type N-terminally His6-tagged 12-lipoxygenase assessed as conjugated diene product formation using arachidonic acid by UV-vis spectrophotometer analysis
pIC50: −log10 of the molar value.
I'd appreciate it if you could supply pIC50 values for the items below.

>>> reported_measurement("CC(=O)NC(c1ccco1)c1cc(Cl)c2ccc(Cl)nc2c1O (stereo not drawn)")
"< 4.12"
>>> reported_measurement("CC(=O)NC(c1ccco1)c1cc(Cl)c2ccc(N3CCCCC3)nc2c1O (stereo not drawn)")
"< 4.12"

Please examine the following record next.
Lookup: // pIC50 lookup, key: CC(=O)NC(c1ccco1)c1cc(Cl)c2ccccc2c1O (stereo not drawn)
Found: < 4.12
